Molecular target: human HIPK1 (Homo sapiens, UniProt Q86Z02)
Construct: Recombinant human HIPK1 (156-555); GST (N); purchased SignalChem H03-11G; host or cells: Sf9 insect cells
Sequence (Q86Z02 156-555): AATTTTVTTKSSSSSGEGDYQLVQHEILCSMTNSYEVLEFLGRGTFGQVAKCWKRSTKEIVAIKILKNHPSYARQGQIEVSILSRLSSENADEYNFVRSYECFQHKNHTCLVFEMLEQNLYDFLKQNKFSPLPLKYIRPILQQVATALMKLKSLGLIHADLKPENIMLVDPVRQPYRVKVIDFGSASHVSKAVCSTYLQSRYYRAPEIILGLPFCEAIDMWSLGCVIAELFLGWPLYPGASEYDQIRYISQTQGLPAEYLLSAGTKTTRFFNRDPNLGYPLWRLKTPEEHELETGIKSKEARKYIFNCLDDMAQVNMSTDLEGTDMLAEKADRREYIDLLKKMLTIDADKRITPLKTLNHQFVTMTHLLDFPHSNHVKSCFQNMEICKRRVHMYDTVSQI
Assay: HIPK1 enzyme assay (ADP-Glo)
Format: biochemical
Conditions: ADP-Glo, ATP 5 μM; read-out: HIPK1 IC50
pIC50: −log10 of the molar value.
Collected pIC50 values appear next to each entry.

Please review the following examples before continuing.
# givenSmiles, pIC50
records = [
    ("O=C1NC(Nc2ccc3ncsc3c2)=N/C1=C\\c1ccc2nccnc2c1", "< 5.00"),
    ("NC(=O)CCN(C1=N/C(=C\\c2ccc3c(c2)OCO3)C(=O)N1)c1ccccc1", "< 5.00"),
    ("O=C1NC(Nc2ccccc2)=N/C1=C\\c1ccc2ncsc2c1", "6.00 to 7.00"),
    ("O=C1NC(Nc2ccc(Cl)cc2)=N/C1=C\\c1ccc2ncsc2c1", "5.00 to 6.00"),
    ("O=C1NC(Nc2ccccc2)=N/C1=C\\c1ccc2scnc2c1", "< 5.00"),
    ("Cn1ncc2cc(/C=C3\\N=C(Nc4ccc5ncsc5c4)NC3=O)ccc21", "< 5.00"),
    ("O=C1NC(Nc2ccccc2)=N/C1=C\\c1ccc2nn[nH]c2c1", "< 5.00"),
    ("O=C1NC(N(Cc2ccccc2)c2ccccc2)=N/C1=C\\c1ccc2ncsc2c1", "< 5.00"),
]

Consider the record given below.
Consider the compound `O=C1NC(Nc2ccc3ncsc3c2)=N/C1=C\c1ccc2c(c1)OCO2` and give its recorded pIC50.
< 5.00
